Tested on: K4 kissing-loop RNA reporter
ASSAY_METHOD_TEXT: apparent KD of K4 kissing-loop reporter; higher = weaker reporter binding
PARTICULARS: Eterna round: R107; input ligand: tryptophan 2.4 mM
Reported apparent KD of K4 kissing-loop reporter values for a set of sequences
Only the number, expressed in nM, is required.

Worked cases, apparent KD of K4 kissing-loop reporter given:
>  <PRIMARY_SEQUENCE>
AAAAUAAAUAGCAGUCACGGAGUGAUGUUCCGAGGACCGGUACGGCCGCCACUCGACCAGACAAAGUCUGGAUGGCGAGACUGCA [#SwitchBubble 19 #K4Early]

>  <ASSAYED_SYSTEM>
K4 kissing-loop RNA reporter

>  <ASSAY_ENDPOINT>
apparent KD of K4 kissing-loop reporter

>  <REPORTED>
340

$$$$
>  <PRIMARY_SEQUENCE>
UGUGUUUUUUUGAUGUUUGUUGUAAAAUGGCAGGAUAUCGUAGAGGCGAGAAGGGCUUUUAUGCGUUAUGAGUGAUGUUUGUAGG [qqdqmullin]

>  <ASSAYED_SYSTEM>
K4 kissing-loop RNA reporter

>  <ASSAY_ENDPOINT>
apparent KD of K4 kissing-loop reporter

>  <REPORTED>
241

$$$$
>  <PRIMARY_SEQUENCE>
CCGGGCGGCCGAAGGAGCGGGCGGACCCGAGUGAUGUUCGGGUGGCCCGUGAGGGCCGGUGCCCAGGUAGGUCGCGGAUCCGCCC [#2 Same State - Arginine B Attempt #3 (HarryS)]

>  <ASSAYED_SYSTEM>
K4 kissing-loop RNA reporter

>  <ASSAY_ENDPOINT>
apparent KD of K4 kissing-loop reporter

>  <REPORTED>
135

$$$$
>  <PRIMARY_SEQUENCE>
AAACAUUGGUCGGAUACCAGUUAGACCGAUAAGGUCAAAACUGGAGUGAUGUUCCCAAAUAACCCUUGGCAGCCGACCGAUGAAA [MAT - Same State Theophlline B - Mod of Eli - D11]

>  <ASSAYED_SYSTEM>
K4 kissing-loop RNA reporter

>  <ASSAY_ENDPOINT>
apparent KD of K4 kissing-loop reporter

>  <REPORTED>
221

$$$$
>  <PRIMARY_SEQUENCE>
UUCUGCAUCUCGGCCGCCACUCACUAGUGAUGUUAGUAAGGAGCGACUAGAAAAGUCCAGUUAAUGAGGACCGGGAGAAGCUCUU [Exclusion Tryptophan B GF 1]

>  <ASSAYED_SYSTEM>
K4 kissing-loop RNA reporter

>  <ASSAY_ENDPOINT>
apparent KD of K4 kissing-loop reporter

>  <REPORTED>
217

$$$$
>  <PRIMARY_SEQUENCE>
AGAGAUAUAUGAGGAUAUGAGAUAGUUAAUGAGUGAGUUAUAGUGUUGUUUGGUUAGUGAUGUUAUUUAGAAGGCGUGAGUGAUG [immumullin]

>  <ASSAYED_SYSTEM>
K4 kissing-loop RNA reporter

>  <ASSAY_ENDPOINT>
apparent KD of K4 kissing-loop reporter

>  <REPORTED>
82.5

$$$$

Value wanted: apparent KD of K4 kissing-loop reporter (K4 kissing-loop RNA reporter) of entry UUUGGAUUGCACUAAGAGCGCAAGCGCCAACGAGGACCGGUACGGCCGCCACUCGCGGAGGAGUCCAGUGAUGUUGGACGGCCCG [Onenusan]
172

Please tell me: apparent KD of K4 kissing-loop reporter of CCUAUCUCAUACGAUACCAGUCAAUGAAAUUUUAUCAAUGCCAUCACCGAGUGAUGUUCGGACCCUUGGCAGCGUAUGGGAUAGG [Ex Theophylline B K4 3] , system K4 kissing-loop RNA reporter?
223

Report apparent KD of K4 kissing-loop reporter for CGCAGUGAUGUUGCGAGUAGCUACAGGGAAGGAGCGUGCUAGAGCACAGGUAGGUCGCCCACGCAGUGAUGUUGUGUCAAAGGGU [Exclusion Arginine A GF 11] tested on K4 kissing-loop RNA reporter.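 Note: bound reporter read as fluorescence of individual clusters on recovered sequencing chips by microscopy, with normalized cluster intensities fitted with a binding model.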
146

Item AAAGACUGACUGCAAUUAGCAGUCAGUCAACGAGGACCGGUACGGCCGCCACUCGGGUCCUAGAGUGAUGUUCUAAUAAUAUAAU [Default title] with K4 kissing-loop RNA reporter - apparent KD of K4 kissing-loop reporter?
167

Field: apparent KD of K4 kissing-loop reporter (K4 kissing-loop RNA reporter). Entry: GGAUAGGACAGAGGAUAUCCAGUGAUGUUGGAGAAUUCUCCUUCAACAUGUCACAAAAGUGGCAUGGGAGAAGGCUGUCCUAUCG [Mod of Eli's FmnBX 29 v2]
108
